The reported measurements were obtained from patent US20050070532A1.

Collected EC50 values appear next to each entry.
- target system: hPPARα (Homo sapiens, UniProt Q07869)
- Sequence (Q07869 239-466 limits assumed): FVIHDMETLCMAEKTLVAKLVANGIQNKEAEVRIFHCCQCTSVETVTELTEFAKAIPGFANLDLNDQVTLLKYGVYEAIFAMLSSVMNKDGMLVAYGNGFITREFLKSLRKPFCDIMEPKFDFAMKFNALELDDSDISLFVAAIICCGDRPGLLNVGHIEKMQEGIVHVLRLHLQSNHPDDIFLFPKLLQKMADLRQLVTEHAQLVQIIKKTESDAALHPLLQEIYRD
- protocol details: cell-based human PPAR-GAL4 chimera luciferase reporter assay in CV-1 cells (PPARα)
- reported conditions: CV-1 cells transiently transfected with PPAR LBD-GAL4 chimera and luciferase reporter, 24 hours treatment; read-out: hPPAPα (EC50)

Known results for compounds:
CCc1cnc(N(CCCOc2cc3ccccc3cc2C(=O)O)Cc2ccc(C(F)(F)F)cc2C(F)(F)F)nc1 : 1 to 100 µM
CCCCN(CCCOc1cccc(CC(=O)O)c1)c1ncc(CC)cn1 : > 100 µM
CCCCN(CCCOc1c(C(=O)O)ccc2ccccc12)c1ccccn1 : > 100 µM
CCc1cnc(N(CCCOc2ccc3cc(C(=O)O)ccc3c2)Cc2ccc(C(F)(F)F)cc2C(F)(F)F)nc1 : > 100 µM

Asked: What is its EC50 for hPPARα (Homo sapiens, UniProt Q07869)? Entry: O=C(O)Cc1cccc(OCCCN(Cc2ccc(C(F)(F)F)cc2C(F)(F)F)c2ccccn2)c1
Given back: > 100 µM

Asked: Query for hPPARα (Homo sapiens, UniProt Q07869): what EC50 does the record show for CCCCN(CCCOc1c(C(=O)O)ccc2ccccc12)c1nc2ccccc2s1 ?
Given back: > 100 µM

Asked: Find the measured EC50: item CCc1cnc(N(CCCOc2cccc(CC(=O)O)c2)Cc2ccc(C(F)(F)F)cc2C(F)(F)F)nc1 , target or system hPPARα (Homo sapiens, UniProt Q07869).
Given back: < 1 µM

Asked: Form entry - test system: hPPARα (Homo sapiens, UniProt Q07869); read-out: EC50; compound: CCCCN(CCCOc1cccc(CC(=O)O)c1)c1nc2ccccc2o1
Given back: 1 to 100 µM

Asked: Query for hPPARα (Homo sapiens, UniProt Q07869): what EC50 does the record show for O=C(O)Cc1cccc(OCCCN(Cc2ccc(C(F)(F)F)cc2C(F)(F)F)c2nc3ccccc3s2)c1 ?
Given back: > 100 µM
